The measurements presented in this section are drawn from ChEMBL document CHEMBL1157539.

Test system: Plasmodium falciparum
Experiment Notes: GSK_TCMDC: Inhibition of Plasmodium falciparum Dd2 in whole red blood cells, using parasite LDH activity as an index of growth. Test compounds present at 2uM
Assay type: functional
Observation Type: Inhibition (%)
Give the number; % is assumed, so skip it.

Please review the following examples before continuing.
Compound	System Name	Observation Type	Data Value
O=C(c1ccc(O)c(-c2cc(Cl)cc(Cl)c2)c1)N(CCO)CCO	Plasmodium falciparum	Inhibition	62
CC(=O)Nc1cccc(C(=O)Nc2ccc(-c3cccc(-c4nc5cc(C(F)(F)F)ccc5[nH]4)c3)cc2)c1	Plasmodium falciparum	Inhibition	85

Suppose we examine the compound Cn1cccc1CCNCc1ccc(-c2cccc(-c3nc4cc(F)ccc4[nH]3)c2)cc1.O=C(O)C(F)(F)F ; what Inhibition value has been reported?
43

Give the measured Inhibition of O=C(NCc1ccc(Cl)cc1)c1ccc(CN2CCCN(CC3CCCCC3)CC2)cc1.O=C(O)C(F)(F)F .
5

Looking for the measured Inhibition of Cc1n[nH]c2cc(Nc3ccnc(Nc4cccc(CN5CCOCC5)c4)n3)ccc12 , can you help?
0

Would you mind telling me what Inhibition value was observed for COc1ccc(CNC(=N)Nc2nc(-c3ccc(OCCCn4ccnc4)cc3)cs2)cc1.Cl ?
67

Can you look up the measured Inhibition of CCCCCCCCNCCCSCCCNCCCCCCCC.Cl for me?
47

Give its Inhibition value. Item: CCN(CC)C(=O)C(=O)c1c[nH]c2ccc(Cl)cc12
96

I'd like to know its Inhibition. The compound in question is O=[N+]([O-])c1cc(/C=N/Nc2nc3nonc3nc2Nc2ccc(F)cc2)c(Cl)cc1Cl
13

What measured Inhibition goes with OC(CNCc1cccc(Oc2ccc(Cl)cc2)c1)c1cccc(C(F)(F)F)c1 (stereo not drawn) ?
78

###

Catalogue of Inhibition readings, one per entry.
Tested on: Plasmodium falciparum
Experiment Notes: GSK_TCMDC: Inhibition of Plasmodium falciparum Dd2 in whole red blood cells, using parasite LDH activity as an index of growth. Test compounds present at 2uM
Type: functional

Use the examples below as a reference point.
Molecule	Inhibition
CCc1ccc(NC(=O)N(CCCn2ccnc2)Cc2csc(-c3ccc(CNCc4ccccc4)cc3)n2)cc1.O=C(O)C(F)(F)F	39%
CN1CCN(CC(=O)Nc2cccc(-c3ccc(-c4nc5cc(F)ccc5[nH]4)s3)c2)CC1	94%
Nc1nccc2ccc(-c3cccc(O)c3)cc12	71%
Cc1ccccc1C1CCN(C2CCC(NC(=O)/C=C/c3ccc(F)cc3)CC2)CC1 (centres undefined)	30%
Cc1onc(-c2ccccc2Cl)c1C(=O)Nc1cc(Cl)c(Cl)cc1Cl	57%

Request the reported Inhibition associated with N#Cc1ccc(CN2CCC(Oc3ccc(NC(=O)c4ccco4)cc3Cl)CC2)cc1.O=C(O)C(F)(F)F
96%

Which measured Inhibition value corresponds to Cl.O=C(CCc1ccccc1)N[C@H](Cc1c[nH]c2ccccc12)C(=O)N1CCC(NCc2ccc3c(c2)Cc2ccccc2-3)CC1 ?
8%

Which measured Inhibition value corresponds to COc1cc2nc(N3CCC(CNC(=O)c4ccc(-c5ccc(C(=O)N(C)C)cc5OCCO)cc4)CC3)nc(N)c2cc1OC ?
8%

Which Inhibition value belongs to COc1ccc(Br)cc1/C=C/C(=O)Nc1ccc(C2CCCN(C)C2)cc1.O=CO (centres undefined) ?
35%

Record request: Inhibition value, item Cl.Nc1ccc(-c2cc(Cl)cc(Cl)c2)cc1-c1cc2ccccc2[nH]1
97%

Entry CCN1CCC(N(Cc2ccc(-c3ccc(C(F)(F)F)cc3)cc2)C(=O)Cn2c(CCc3cccc(F)c3F)cc(=O)c3ccccc32)C1.O=C(O)C(O)C(O)C(=O)O (centres undefined) has what Inhibition?
84%

What does the record list as Inhibition for CC1CCN(c2nc(C(=O)NCCc3ccc(Cl)c(Cl)c3)c(C(C)C)s2)CC1.O=C(O)C(F)(F)F ?
38%

For the molecule shown here, CC1(C)S(=O)(=O)CC(O)CS1(=O)=O , give the reported Inhibition.
9%

Requested read-out: Inhibition. Entry: Cc1nn(-c2ccnc3cc(Cl)ccc23)c(C)c1C(=O)NCc1cc(Cl)cc(Cl)c1
53%

Reported Inhibition for O=C(Nc1cccc(-c2nn3ccccc3c2-c2ccnc(Nc3ccc(Cc4ccncc4)cc3)n2)c1)c1c(F)cccc1F : what is it?
97%

Which Inhibition value is on record for O=C(CCC1CCCCC1=O)c1ccccc1 (centres undefined) ?
3%

// returns reported Inhibition for input O=c1cc(NCCCNCc2cccc(Oc3ccccc3)c2)[nH]c2ccccc12
67%

Entry O=C(Nc1ccc(OC2CCN(Cc3ccc(F)cc3)C2)c(Cl)c1)c1ccoc1.O=C(O)C(F)(F)F (centres undefined) has what Inhibition?
90%

Given the molecule CC(=O)c1cc(N2CCOCC2)ccc1N , what is its reported Inhibition?
43%
